- Assay info: OD615 S. cerevisiae growth inhibition, permissive medium, pilot counter-assay, permissive growth control for S. cerevisiae lifespan shortening project (AID 705)
- Stated conditions: OD615, 24 h, at 10 µM, stronger effect = higher value
Each entry below carries its reported growth inhibition.
Readout: growth inhibition (%)

c1nc(NCCN2CCOCC2)c2sc3nc(N4CCOCC4)c4c(c3c2n1)CCC4 | -7.6
Cc1cc(C)c(C#N)c(Nc2ccc3c(c2)OCCO3)n1 | 0.055
COc1ccc(S(=O)(=O)NCCN2CCOCC2)c2ccccc12 | -1.53
Cc1ccc(CNC(=O)CCCNS(=O)(=O)c2cccc3nonc23)cc1 | -4.66
C=CCOC(=O)CCCC(=O)NC1CCCCC1 | -26.9
O=C(Nc1cccc(F)c1)c1ccc(S(=O)(=O)N2CCOCC2)cc1 | -17
O=C(Nc1ccc(N2CCCC2)c(Cl)c1)c1ccc(Br)o1 | 3.44
Cc1cccc(-n2c(CNC(=O)c3ccccc3)nnc2SCC(=O)Nc2nccs2)c1 | 4.21
CC1CCN(CCNC(=O)c2ccc(NC(=O)C3CCCO3)cc2)CC1 (configuration not stated) | -16.1
Cn1c(=O)oc2cc(S(=O)(=O)Nc3cccc(F)c3)ccc21 | -14.2
O=C(c1ccc(CS(=O)(=O)c2ccc(Br)cc2)o1)N1CCN(c2ncccn2)CC1 | -4.05
c1ccc(OCCOCCSc2ncccn2)cc1 | 1.54
O=C(O)C1C2C=CC(C2)C1C(=O)NCCc1cccc(Cl)c1 (configuration not stated) | -2.6
Cc1cc(Nc2nc3c(c(=O)n(C)c(=O)n3C)n2C)n(-c2ccc(Cl)cc2)n1 | 9.41
Cc1cc(C)c(S(=O)(=O)NCC2CCC(C(=O)NCCCN3CCOCC3)CC2)c(C)c1 (configuration not stated) | -6.14
CCOC(=O)Cc1csc(NC(=O)Nc2ccccc2)n1 | -11.8
C=CCn1c(C(C)NC(=O)C(C)(C)C)nc2ccccc21 (configuration not stated) | -9.47
Nc1nc(Nc2ccccc2Br)nc(C(F)(F)F)n1 | -3.56
CCN(CCNC(=O)Cn1cc2c(n1)CCCC2)c1ccccc1 | -4.85
CSc1nnc(C2CCCN2)n1C (configuration not stated) | -16.9
CSc1nc(N(CCO)CCO)c2sc3nc(-c4ccco4)c4c(c3c2n1)CCC4 | -1.82
Cc1cc(NC(=O)CSc2ccc3nnc(-c4ccccn4)n3n2)no1 | -3.09
Cn1c(CNc2ccccc2O)nc2ccccc21 | -5.35
c1ccc(Nc2nc(N3CCCCC3)nc(N3CCNCC3)n2)cc1 | -9.86
CCc1cc(C(=O)Nc2ccccc2)cs1 | -8.2
Cc1ccccc1CN1C(=O)C(O)(CC(=O)c2ccncc2)c2ccccc21 (configuration not stated) | -11.4
Cc1ccc(N(C(=O)CC2NC(=O)NC2=O)C2(C(=O)NC3CCCC3)CCCCC2)cc1 (configuration not stated) | -9.96
Cc1onc(-c2ccccc2Cl)c1C(=O)OCN1C(=O)c2ccccc2C1=O | -16.8
O=C(c1ccco1)N1CCN(S(=O)(=O)c2cccc3nsnc23)CC1 | -10.9
O=C(O)c1cccc(N2C(=O)C3CC=C(Cl)CC3C2=O)c1 (configuration not stated) | -4.4
COc1ccc(C/C(O)=C(\C#N)c2nc3ccccc3[nH]2)cc1OC | -4.85
CC1CCCN(Cc2nc3c(c(=O)n(C)c(=O)n3C)n2Cc2cccc3ccccc23)C1 (configuration not stated) | -4.69
CCCC(=O)Nc1cccc(C(=O)Nc2nccs2)c1 | -9.54
Cc1cccn2c(=O)c(C=NCc3ccco3)c(Nc3ccc(Cl)cc3)nc12 | -14.3
COc1ccccc1S(=O)(=O)Cc1ccc(C(=O)NCc2ccc3c(c2)OCO3)o1 | -4.21
Cc1cc(Nc2ccc(F)cc2F)n2nc(C)nc2n1 | -20.2
Cc1cc(C)cc(N(CC(=O)N2CCN(Cc3ccccc3)CC2)S(=O)(=O)c2c(C)noc2C)c1 | -13.5
CCOc1ccc(Cn2nnc(C(=O)NCCc3ccccc3)c2N)cc1 | 1.4
O=C(Nc1ccc(Cl)cn1)c1cccc(F)c1 | -8.65
O=C(c1ccccc1)c1ccc(OC(=O)N2CCOCC2)cc1 | -7.92
CCC(C)(c1ccc(C(=O)OC)s1)c1ccc(C(=O)OC)s1 | -5.53
Cc1ccccc1Cn1cc(S(=O)(=O)CC(=O)Nc2nccs2)c2ccccc21 | -30.2
CCCC(=O)Nc1cc(C)c(NC(=O)Cc2ccccc2)cn1 | 2.84
CC(Oc1ccc(Cl)cc1)C(=O)Nc1nccs1 (configuration not stated) | -5.8
CCOc1ccc(C2CC(c3ccccc3C)n3ncnc3N2)cc1 (configuration not stated) | -6.31
C=C(C)Cn1c(CCNC(=O)CCC)nc2ccccc21 | -9.26
CCOC(=O)c1c(NC(=O)CN2CCCCC2)sc2c1CCCC2O (configuration not stated) | -10.4
